Sourced from patent US9464064B2

# target.of.assay: HCV NS3 helicase NS3h_1b(con1) (Hepatitis C virus genotype 1b)
# Construct: truncated C-terminally His-tagged NS3 proteins lacking the N-terminal protease, called NS3h; His-tag (C); made in house
# procedure.summary: biochemical
# Format: biochemical, hepatitis C virus genotype 1b(con1)
# measurement.context: MBHA, DNA unwinding; mean ± SD of three titrations; read-out: Helicase IC50

>  <molecule>
CCN(CC)c1ccc(-c2nc3ccc(-c4nc5ccc(C)c(S(=O)(=O)O)c5s4)cc3s2)cc1 [Compound T2]

>  <output.unit>
µM

>  <lt.gt.eq>
=

>  <IC50>
26

$$$$
>  <molecule>
Cc1ccc2nc(-c3ccc4nc(-c5ccc(NC(=O)c6ccc(Cl)c(Cl)c6)cc5)sc4c3)sc2c1S(=O)(=O)O [Compound 18]

>  <output.unit>
µM

>  <lt.gt.eq>
=

>  <IC50>
3.7

$$$$
>  <molecule>
CC(=O)Nc1ccc(-c2nc3ccc(-c4nc5ccc(C)c(S(=O)(=O)O)c5s4)cc3s2)cc1 [Compound 30]

>  <output.unit>
µM

>  <lt.gt.eq>
>

>  <IC50>
100

$$$$
>  <molecule>
Cc1ccc2nc(-c3ccc4nc(-c5ccc(NC(=O)c6cc(F)cc(C(F)(F)F)c6)cc5)sc4c3)sc2c1S(=O)(=O)O [Compound 27]

>  <output.unit>
µM

>  <lt.gt.eq>
=

>  <IC50>
28

$$$$
>  <molecule>
Cc1ccc2nc(-c3ccc(N)cc3)sc2c1S(=O)(=O)O [Compound P1a]

>  <output.unit>
µM

>  <lt.gt.eq>
=

>  <IC50>
70

$$$$
>  <molecule>
COc1ccc(S(=O)(=O)Nc2ccc(-c3nc4ccc(-c5nc6ccc(C)c(S(=O)(=O)O)c6s5)cc4s3)cc2)cc1 [Compound 29]

>  <output.unit>
µM

>  <lt.gt.eq>
=

>  <IC50>
24

$$$$
>  <molecule>
Cc1cc2sc(-c3ccc4nc(-c5ccc(N)cc5)sc4c3)nc2cc1S(=O)(=O)O [Compound P2b]

>  <output.unit>
µM

>  <lt.gt.eq>
=

>  <IC50>
10

$$$$

---

Measured Int.* (Ratio) (Interference), listed per entry for reference.
# target.of.assay: HCV NS3 helicase NS3h_1b(con1) (Hepatitis C virus genotype 1b, UniProt Q9WMX2)
# Construct: truncated C-terminally His-tagged NS3 proteins lacking the N-terminal protease, called NS3h; His-tag (C); made in house
# Sequence (Q9WMX2 1192-1657): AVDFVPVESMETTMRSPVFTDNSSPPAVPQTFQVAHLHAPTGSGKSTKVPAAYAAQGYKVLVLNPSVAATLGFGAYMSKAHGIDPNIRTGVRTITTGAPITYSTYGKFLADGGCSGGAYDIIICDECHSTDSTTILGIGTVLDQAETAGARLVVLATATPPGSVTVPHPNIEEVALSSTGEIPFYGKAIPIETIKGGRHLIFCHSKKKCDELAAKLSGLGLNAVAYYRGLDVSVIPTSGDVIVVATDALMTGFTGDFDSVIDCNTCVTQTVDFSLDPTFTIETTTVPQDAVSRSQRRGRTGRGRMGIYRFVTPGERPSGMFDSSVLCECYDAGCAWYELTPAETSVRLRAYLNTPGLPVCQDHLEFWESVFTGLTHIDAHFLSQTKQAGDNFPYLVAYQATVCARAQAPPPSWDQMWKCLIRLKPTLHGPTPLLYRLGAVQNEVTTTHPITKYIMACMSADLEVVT
# procedure.summary: MBHA screen of NCI mechanistic set library at 20 μM (percent inhibition, compound interference)
# Assay type: biochemical
# measurement.context: compounds at 20 μM, MBHA with DNA substrate; assay interference calculated with Equation 2

>  <compound>
CC[C@@]1(O)C[C@H](O[C@H]2C[C@H](N(C)C)[C@H](O[C@H]3C[C@H](O)[C@H](O[C@H]4CCC(=O)[C@H](C)O4)[C@H](C)O3)[C@H](C)O2)c2c(cc3c(c2O)C(=O)c2c(O)cccc2C3=O)[C@@H]1C(=O)OC

>  <Int.* (Ratio) (Interference)>
0.56 Ratio

$$$$
>  <compound>
CCOC(=O)c1cc2c(OC)cc(OC)cc2oc1=O

>  <Int.* (Ratio) (Interference)>
1.16 Ratio

$$$$
>  <compound>
C=C1C(=O)C23CC[C@@H]4C(C)(C(=O)OC)CCCC4(C)[C@@H]2CCC1(O)C3 (stereo partly drawn)

>  <Int.* (Ratio) (Interference)>
0.91 Ratio

$$$$
